Form field: TGI (one value per entry).
- Test system: CCRF-CEM leukemia
- test: NCI tumour cell line growth inhibition, 48 h

The cases that follow already have their TGI on record.
Input: Fill blank: measured TGI of the molecule O=C(Nc1ccccc1)n1[nH]c(=O)n(-c2ccccc2)c1=O is ____.
Output: > 100 µM

Input: Fill blank: measured TGI of the molecule O=[N+]([O-])c1cc2c(c([N+](=O)[O-])c1)NCc1ccccc1O2 is ____.
Output: > 100 µM

Input: Fill blank: measured TGI of the molecule COc1cccc(OCCCN)c1-c1cc(Nc2cnc(C#N)cn2)n[nH]1 is ____.
Output: > 73 µM

More entries:
Input: Fill blank: measured TGI of the molecule COC(=O)C1CCCN1C(=O)[C@@H]1CCCN1C(=O)[C@H](Cc1c[nH]c2ccccc12)NC(=S)Nc1cc(C(F)(F)F)cc(C(F)(F)F)c1 (some centres undefined) is ____.
Output: 8.55 µM

Reference source for all entries: PubChem BioAssay (NCI)
